- System under test: Human recombinant Casein Kinase 1 delta (CK1δ) (Homo sapiens, UniProt P48730)
- Construct: purchased Millipore (Millipore Iberica S.A.U.)
- Sequence (P48730 whole entry): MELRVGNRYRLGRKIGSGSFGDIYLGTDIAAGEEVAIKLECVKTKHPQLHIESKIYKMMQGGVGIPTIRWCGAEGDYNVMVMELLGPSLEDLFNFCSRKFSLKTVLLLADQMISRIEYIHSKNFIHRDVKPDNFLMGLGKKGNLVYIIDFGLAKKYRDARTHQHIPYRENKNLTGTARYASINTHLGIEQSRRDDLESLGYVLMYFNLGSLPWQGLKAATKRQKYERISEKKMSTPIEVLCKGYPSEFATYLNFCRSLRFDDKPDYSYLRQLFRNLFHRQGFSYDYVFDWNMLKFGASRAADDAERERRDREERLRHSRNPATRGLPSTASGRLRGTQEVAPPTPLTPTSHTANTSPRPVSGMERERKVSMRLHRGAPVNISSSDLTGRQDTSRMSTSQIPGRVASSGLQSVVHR
- Measurement description: CK-1δ Kinase-Glo assay
- Type: biochemical
- Applied conditions: screening at fixed concentration of 10 µM
Could you label it t if measured CK1δ inhibition (value in parentheses) is 40% or higher, and f otherwise?

Worked set:
Compound: O=C(Nc1ccc(Oc2ccccc2)cc1)Nc1nc2ccc(Cl)cc2s1 [Compound K701]
Class assignment: f
//
Compound: CCOC(=O)c1ccc(NC(=O)Nc2nc3ccc(Cl)cc3s2)cc1 [Compound K705]
Class assignment: t

Problem: Item COC(=O)c1cc(NC(=O)Nc2nc3ccc(F)cc3s2)ccc1O [Compound K710] with CK1δ inhibition (value in parentheses) of 40% or above?
Solution: f

Problem: Item CCOC(=O)c1ccc(NC(=O)Nc2nc3ccc(F)cc3s2)cc1 [Compound K704] with CK1δ inhibition (value in parentheses) of 40% or above?
Solution: f

Problem: Item COC(=O)c1ccc(NC(=O)Nc2nc3ccc(F)cc3s2)cc1 [Compound K706] with CK1δ inhibition (value in parentheses) of 40% or above?
Solution: t

Problem: Item COc1ccc(NC(=O)Nc2nc3ccc(F)cc3s2)cc1OC [Compound K696] with CK1δ inhibition (value in parentheses) of 40% or above?
Solution: f

Problem: Item O=C(Nc1ccc(Oc2ccccc2)cc1)Nc1nc2ccc(F)cc2s1 [Compound K700] with CK1δ inhibition (value in parentheses) of 40% or above?
Solution: f

* * *

- System under test: Human recombinant Casein Kinase 1 delta (CK1δ) (Homo sapiens, UniProt P48730)
- Construct: purchased Millipore (Millipore Iberica S.A.U.)
- Measurement description: CK-1δ Kinase-Glo assay
- Format: biochemical
Form field: SI (Selectivity index = IC50CK1ε/IC50CK1δ) (one value per entry).
I'd appreciate a reply containing only the number, no unit.

Problem: Indicate the recorded SI (Selectivity index = IC50CK1ε/IC50CK1δ) value for this compound: O=C(Nc1nc2ccc(Cl)cc2s1)Nc1ccccc1O [Compound K689]
Solution: 8.1

Problem: Indicate the recorded SI (Selectivity index = IC50CK1ε/IC50CK1δ) value for this compound: O=C(Nc1ccc(O)cc1)Nc1nc2ccc(Cl)cc2s1 [Compound K685]
Solution: 15.3

Problem: Indicate the recorded SI (Selectivity index = IC50CK1ε/IC50CK1δ) value for this compound: O=C(Nc1ccc(O)c(Cl)c1)Nc1nc2ccc(F)cc2s1 [Compound K690]
Solution: 12.0

* * *

- System under test: Human recombinant Casein Kinase 1 delta (CK1δ) (Homo sapiens, UniProt P48730)
- Construct: purchased Millipore (Millipore Iberica S.A.U.)
- Measurement description: CK-1δ Kinase-Glo assay
- Format: biochemical
- Applied conditions: human recombinant enzyme; mean of two independent experiments; read-out: IC50 CK1δ (µM ± SD)
Hi! Just check whether IC50 is below 0.9 µM. Below gives met, equal or above gives not met.

Compound: COc1ccc(NC(=O)Nc2nc3ccc(F)cc3s2)cc1 [Compound K694]
Class assignment: not met

Problem: In plain terms, does CCOC(=O)c1ccc(NC(=O)Nc2nc3ccc(Cl)cc3s2)cc1 [Compound K705] come in under 0.9 µM for IC50?
Solution: not met

Problem: In plain terms, does COc1ccc(NC(=O)Nc2nc3ccc(Cl)cc3s2)cc1OC [Compound K697] come in under 0.9 µM for IC50?
Solution: met

Problem: In plain terms, does CC(=O)Nc1ccc(NC(=O)Nc2nc3ccc(F)cc3s2)cc1 [Compound K708] come in under 0.9 µM for IC50?
Solution: not met

Problem: In plain terms, does O=C(Nc1ccc(O)cc1)Nc1nc2ccc(Cl)cc2s1 [Compound K685] come in under 0.9 µM for IC50?
Solution: met

Problem: In plain terms, does O=C(Nc1ccc(C(=O)O)cc1)Nc1nc2ccc(F)cc2s1 [Compound K702] come in under 0.9 µM for IC50?
Solution: not met

Problem: In plain terms, does O=C(Nc1ccc(O)c(Cl)c1)Nc1nc2ccc(Cl)cc2s1 [Compound K691] come in under 0.9 µM for IC50?
Solution: met

Problem: In plain terms, does CCOC(=O)c1ccc(NC(=O)Nc2nc3ccc(F)cc3s2)cc1 [Compound K704] come in under 0.9 µM for IC50?
Solution: not met
